- experimental.protocol: Octanol/water partition coefficient, log P of the compound by shake flask method
- Type: physicochemical
This listing pairs compounds with measured logP.
test.readout: logP

* O=c1nc(-c2ccccc2)c(-c2ccccc2)nn1Cc1nnc(-c2ccc(Cl)cc2)o1 | 3.91
* O=c1nc(-c2ccccc2)c(-c2ccccc2)nn1Cc1nnc(-c2ccccc2)o1 | 3.54
* O=c1nc(-c2ccccc2)c(-c2ccccc2)nn1Cc1nnc(-c2ccncc2)o1 | 3.67
* O=c1nc(-c2ccccc2)c(-c2ccccc2)nn1Cc1nnc(-c2ccccc2[N+](=O)[O-])o1 | 3.64
* O=c1nc(-c2ccccc2)c(-c2ccccc2)nn1Cc1nnc(Oc2ccc(Cl)cc2Cl)o1 | 4.4
* O=c1nc(-c2ccccc2)c(-c2ccccc2)nn1Cc1nnc(-c2cccc(Cl)c2)o1 | 3.82
* COc1ccc(-c2nnc(Cn3nc(-c4ccccc4)c(-c4ccccc4)nc3=O)o2)cc1 | 3.56
* N#Cc1cccc(-c2nnc(Cn3nc(-c4ccccc4)c(-c4ccccc4)nc3=O)o2)c1 | 3.74
* O=c1nc(-c2ccccc2)c(-c2ccccc2)nn1Cc1nnc(-c2ccc([N+](=O)[O-])cc2)o1 | 3.71
* Cc1ccc(-c2nnc(Cn3nc(-c4ccccc4)c(-c4ccccc4)nc3=O)o2)cc1 | 3.73
* Cc1ccccc1-c1nnc(Cn2nc(-c3ccccc3)c(-c3ccccc3)nc2=O)o1 | 3.81
* O=c1nc(-c2ccccc2)c(-c2ccccc2)nn1Cc1nnc(-c2ccc(O)cc2O)o1 | 3.46
* Nc1ccc(-c2nnc(Cn3nc(-c4ccccc4)c(-c4ccccc4)nc3=O)o2)cc1 | 3.72
* O=c1nc(-c2ccccc2)c(-c2ccccc2)nn1Cc1nnc(-c2ccc(Cl)cc2Cl)o1 | 4.45
* COc1cccc(-c2nnc(Cn3nc(-c4ccccc4)c(-c4ccccc4)nc3=O)o2)c1 | 3.47

* * *

- Test system: Rattus norvegicus
- experimental.protocol: Renal toxicity in rat Freund's adjuvant induced arthritis model of chronic inflammation assessed as assessed as total protein level at equimolar oral dose relative to 10 mg/kg, po indomethacin dosed after 14 days from day of adjuvant injection until day 21 and measured on day 21 (reference value: 1.78 +/- 0.11 g/dL)
- Assay type: organism-based
- condition.context: in vivo, 336 h
test.readout: Activity (g/dL)

* COc1ccc(-c2nnc(Cn3nc(-c4ccccc4)c(-c4ccccc4)nc3=O)o2)cc1 | 1.81
* O=c1nc(-c2ccccc2)c(-c2ccccc2)nn1Cc1nnc(-c2ccc(Cl)cc2)o1 | 1.91
* Nc1ccc(-c2nnc(Cn3nc(-c4ccccc4)c(-c4ccccc4)nc3=O)o2)cc1 | 1.86
* O=c1nc(-c2ccccc2)c(-c2ccccc2)nn1Cc1nnc(-c2ccc(O)cc2O)o1 | 1.88
* O=c1nc(-c2ccccc2)c(-c2ccccc2)nn1Cc1nnc(-c2ccc([N+](=O)[O-])cc2)o1 | 1.84

* * *

Entries and their Rf
- experimental.protocol: Retardation factor of the compound
- Type: physicochemical
test.readout: Rf

- Cc1ccc(-c2nnc(Cn3nc(-c4ccccc4)c(-c4ccccc4)nc3=O)o2)cc1: 0.34
- O=c1nc(-c2ccccc2)c(-c2ccccc2)nn1Cc1nnc(-c2ccccc2)o1: 0.4
- O=c1nc(-c2ccccc2)c(-c2ccccc2)nn1Cc1nnc(-c2ccncc2)o1: 0.43
- O=c1nc(-c2ccccc2)c(-c2ccccc2)nn1Cc1nnc(-c2ccc(Cl)cc2Cl)o1: 0.51
- O=c1nc(-c2ccccc2)c(-c2ccccc2)nn1Cc1nnc(-c2ccccc2[N+](=O)[O-])o1: 0.35
- O=c1nc(-c2ccccc2)c(-c2ccccc2)nn1Cc1nnc(Oc2ccc(Cl)cc2Cl)o1: 0.47
- N#Cc1cccc(-c2nnc(Cn3nc(-c4ccccc4)c(-c4ccccc4)nc3=O)o2)c1: 0.45
- O=c1nc(-c2ccccc2)c(-c2ccccc2)nn1Cc1nnc(-c2cccc(Cl)c2)o1: 0.45
- Cc1ccccc1-c1nnc(Cn2nc(-c3ccccc3)c(-c3ccccc3)nc2=O)o1: 0.36
- COc1cccc(-c2nnc(Cn3nc(-c4ccccc4)c(-c4ccccc4)nc3=O)o2)c1: 0.38

* * *

- experimental.protocol: In-vitro anti-inflammatory activity assessed as inhibition of denaturation of bovine serum albumin at equimolar dose relative to 10 mg indomethacin
- Format: functional
As shown below, each of these compounds has a reported inhibition value.
test.readout: inhibition (%)

* COc1ccc(-c2nnc(Cn3nc(-c4ccccc4)c(-c4ccccc4)nc3=O)o2)cc1 | 76.7
* Oc1nnc(-c2ccccc2)c(-c2ccccc2)n1 | 30.7
* NNC(=O)Cn1nc(-c2ccccc2)c(-c2ccccc2)nc1=O | 38.3
* N#Cc1cccc(-c2nnc(Cn3nc(-c4ccccc4)c(-c4ccccc4)nc3=O)o2)c1 | 62.3
* O=c1nc(-c2ccccc2)c(-c2ccccc2)nn1Cc1nnc(-c2ccccc2[N+](=O)[O-])o1 | 70.1
* Cc1ccccc1-c1nnc(Cn2nc(-c3ccccc3)c(-c3ccccc3)nc2=O)o1 | 53.7
* Cc1ccc(-c2nnc(Cn3nc(-c4ccccc4)c(-c4ccccc4)nc3=O)o2)cc1 | 50.3
* O=c1nc(-c2ccccc2)c(-c2ccccc2)nn1Cc1nnc(-c2ccncc2)o1 | 47.9
* O=c1nc(-c2ccccc2)c(-c2ccccc2)nn1Cc1nnc(-c2ccc(O)cc2O)o1 | 80.8
* COc1cccc(-c2nnc(Cn3nc(-c4ccccc4)c(-c4ccccc4)nc3=O)o2)c1 | 62.7

* * *

- System: Rattus norvegicus
- experimental.protocol: Toxicity in healthy albino rat assessed as induction of changes in autonomic or behavioural responses up to 500 mg/kg, po
- Format: organism-based
- condition.context: in vivo
test.readout: Activity

- Nc1ccc(-c2nnc(Cn3nc(-c4ccccc4)c(-c4ccccc4)nc3=O)o2)cc1: Non-toxic
- O=c1nc(-c2ccccc2)c(-c2ccccc2)nn1Cc1nnc(-c2ccc([N+](=O)[O-])cc2)o1: Non-toxic
- O=c1nc(-c2ccccc2)c(-c2ccccc2)nn1Cc1nnc(Oc2ccc(Cl)cc2Cl)o1: Non-toxic
- O=c1nc(-c2ccccc2)c(-c2ccccc2)nn1Cc1nnc(-c2ccc(O)cc2O)o1: Non-toxic
- O=c1nc(-c2ccccc2)c(-c2ccccc2)nn1Cc1nnc(-c2ccccc2[N+](=O)[O-])o1: Non-toxic

* * *

Measured Activity by item
- Test system: Rattus norvegicus
- experimental.protocol: Renal toxicity in rat Freund's adjuvant induced arthritis model of chronic inflammation assessed as assessed as total albumin level at equimolar oral dose relative to 10 mg/kg, po indomethacin dosed after 14 days from day of adjuvant injection until day 21 and measured on day 21 (reference value: 1.77 +/- 0.12 g/dL)
- Format: organism-based
- condition.context: in vivo, 336 h
test.readout: Activity (g/dL)

- O=c1nc(-c2ccccc2)c(-c2ccccc2)nn1Cc1nnc(-c2ccc([N+](=O)[O-])cc2)o1: 1.83
- COc1ccc(-c2nnc(Cn3nc(-c4ccccc4)c(-c4ccccc4)nc3=O)o2)cc1: 1.87
- Nc1ccc(-c2nnc(Cn3nc(-c4ccccc4)c(-c4ccccc4)nc3=O)o2)cc1: 1.87
- O=c1nc(-c2ccccc2)c(-c2ccccc2)nn1Cc1nnc(-c2ccc(Cl)cc2)o1: 1.8
- O=c1nc(-c2ccccc2)c(-c2ccccc2)nn1Cc1nnc(-c2ccc(O)cc2O)o1: 1.82

* * *

- System: Rattus norvegicus
- experimental.protocol: Anti-inflammatory activity in rat Freund's adjuvant induced arthritis model of chronic inflammation assessed as inhibition of right hind paw swelling at equimolar oral dose relative to 10 mg/kg, po indomethacin dosed after 14 days from day of adjuvant injection until day 21 and measured on day 15
- Assay type: functional
inhibition (INH) values by entry
test.readout: inhibition (INH)

• O=c1nc(-c2ccccc2)c(-c2ccccc2)nn1Cc1nnc(-c2ccc([N+](=O)[O-])cc2)o1 = 43.82%
• COc1ccc(-c2nnc(Cn3nc(-c4ccccc4)c(-c4ccccc4)nc3=O)o2)cc1 = 43.46%
• O=c1nc(-c2ccccc2)c(-c2ccccc2)nn1Cc1nnc(-c2ccc(Cl)cc2)o1 = 45.86%
• O=c1nc(-c2ccccc2)c(-c2ccccc2)nn1Cc1nnc(-c2ccc(O)cc2O)o1 = 49.82%
• Nc1ccc(-c2nnc(Cn3nc(-c4ccccc4)c(-c4ccccc4)nc3=O)o2)cc1 = 47.9%

* * *

- Test system: Rattus norvegicus
- experimental.protocol: Renal toxicity in rat Freund's adjuvant induced arthritis model of chronic inflammation assessed as assessed as blood urea nitrogen level at equimolar oral dose relative to 10 mg/kg, po indomethacin dosed after 14 days from day of adjuvant injection until day 21 and measured on day 21 (reference value: 23.48 +/- 1.8 mg/dL)
- Type: organism-based
- condition.context: in vivo, 336 h
Simple rule here: Activity less than 40 mg/dL is fulfilled, otherwise not fulfilled.

• Nc1ccc(-c2nnc(Cn3nc(-c4ccccc4)c(-c4ccccc4)nc3=O)o2)cc1 = fulfilled
• O=c1nc(-c2ccccc2)c(-c2ccccc2)nn1Cc1nnc(-c2ccc(O)cc2O)o1 = fulfilled
• O=c1nc(-c2ccccc2)c(-c2ccccc2)nn1Cc1nnc(-c2ccc(Cl)cc2)o1 = not fulfilled

* * *

- System: Rattus norvegicus
- experimental.protocol: Toxicity in healthy albino rat assessed as induction of sleep up to 500 mg/kg, po
- Type: organism-based
- condition.context: in vivo
test.readout: Activity

• O=c1nc(-c2ccccc2)c(-c2ccccc2)nn1Cc1nnc(-c2ccc(O)cc2O)o1 = Non-toxic
• Nc1ccc(-c2nnc(Cn3nc(-c4ccccc4)c(-c4ccccc4)nc3=O)o2)cc1 = Non-toxic
• O=c1nc(-c2ccccc2)c(-c2ccccc2)nn1Cc1nnc(-c2ccc(Cl)cc2)o1 = Non-toxic
